Target: D(2) dopamine receptor (Homo sapiens, UniProt P14416)
Sequence (P14416 whole entry): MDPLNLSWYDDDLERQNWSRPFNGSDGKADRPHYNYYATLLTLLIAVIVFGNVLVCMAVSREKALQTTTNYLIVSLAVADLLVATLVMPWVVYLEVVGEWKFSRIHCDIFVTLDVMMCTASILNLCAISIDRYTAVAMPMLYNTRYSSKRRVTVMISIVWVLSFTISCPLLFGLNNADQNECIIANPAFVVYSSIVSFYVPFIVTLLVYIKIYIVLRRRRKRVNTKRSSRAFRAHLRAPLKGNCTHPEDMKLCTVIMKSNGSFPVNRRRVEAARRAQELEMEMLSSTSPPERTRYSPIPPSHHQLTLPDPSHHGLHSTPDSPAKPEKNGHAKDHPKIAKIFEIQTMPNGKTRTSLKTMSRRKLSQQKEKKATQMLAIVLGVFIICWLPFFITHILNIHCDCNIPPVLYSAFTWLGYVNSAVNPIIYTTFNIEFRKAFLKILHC
Assay: In vitro binding affinity at human cloned dopamine receptor D2 (long) stably expressed in CHO cells by [3H]spiperone displacement.
Label 1 when Ki < 0.03 µM; otherwise 0.

Worked examples, 8 molecules total:
| MOLECULE | LABEL_VALUE |
| --- | --- |
| c1ccc2c(CCC3CCNCC3)c[nH]c2c1 [INDALPINE] | 0 |
| Cc1cccc2c1C(=O)N(CCCCCN1CC=C(c3c[nH]c4ccccc34)CC1)C2=O | 0 |
| O=C1c2ccc(F)cc2C(=O)N1CCCCCN1CC=C(c2c[nH]c3ccc(F)cc23)CC1 | 1 |
| O=C1c2ccccc2C(=O)N1CCCCCN1CC=C(c2c[nH]c3ccc(F)cc23)CC1 | 1 |
| Cc1cccc2c(C3=CCN(CCCCCN4C(=O)c5ccccc5C4=O)CC3)c[nH]c12 | 0 |
| O=C1c2ccccc2C(=O)N1CCCCCN1CC=C(c2c[nH]c3ccc(Cl)cc23)CC1 | 1 |
| O=C(CCCN1CCC(CCc2c[nH]c3ccccc23)CC1)c1ccc(F)cc1 | 0 |
| Cc1ccc2c(c1)C(=O)N(CCCCCN1CC=C(c3c[nH]c4ccccc34)CC1)C2=O | 0 |

q: I wonder whether O=C1c2cccc(F)c2C(=O)N1CCCCCN1CC=C(c2c[nH]c3ccccc23)CC1 has Ki below 0.03 µM. Can you tell?
a: 1

q: Bench note: check whether O=C1c2ccccc2C(=O)N1CCCCN1CC=C(c2c[nH]c3ccc(F)cc23)CC1 shows Ki below 0.03 µM
a: 1

q: Given Cc1ccc2c(c1)C(=O)N(CCCCCN1CC=C(c3c[nH]c4ccc(F)cc34)CC1)C2=O , is recorded Ki strictly lower than 0.03 µM?
a: 1

q: Does the reported Ki of O=C1c2ccccc2C(=O)N1CCCCCCCN1CC=C(c2c[nH]c3ccc(F)cc23)CC1 stay below 0.03 µM?
a: 1

q: Check if Ki falls below 0.03 µM for O=C1c2ccccc2C(=O)N1CCCN1CC=C(c2c[nH]c3ccc(F)cc23)CC1 .
a: 1

q: Record O=C1c2cccc(F)c2C(=O)N1CCCCCN1CC=C(c2c[nH]c3ccc(F)cc23)CC1 : is its Ki strictly below 0.03 µM?
a: 1

q: Problem: For the molecule O=C1c2ccccc2C(=O)N1CCCCCN1CC=C(c2c[nH]c3ccccc23)CC1 , is Ki under 0.03 µM?
a: 1

q: # TODO verify Ki < 0.03 µM strictly for this molecule: Cc1cccc2c1C(=O)N(CCCCCN1CC=C(c3c[nH]c4ccc(F)cc34)CC1)C2=O
a: 1

q: Lab note: confirm whether the reported Ki for this molecule is below 0.03 µM, equality not counting. molecule: O=C1c2ccc(F)cc2C(=O)N1CCCCCN1CC=C(c2c[nH]c3ccccc23)CC1
a: 0

---

Target: Sodium-dependent serotonin transporter (Rattus norvegicus)
Test: In vitro binding affinity for serotonin reuptake sites in rat frontal cortex membranes by [3H]paroxetine displacement.
EXPERIMENTAL_READOUT: pKi
One number for each entry, as −log10 of the molar value.

| LINE_NOTATION | pKi |
| --- | --- |
| O=C1c2ccccc2C(=O)N1CCCCCN1CC=C(c2c[nH]c3ccc(Cl)cc23)CC1 | 7.80 |
| Cc1cccc2c(C3=CCN(CCCCCN4C(=O)c5ccccc5C4=O)CC3)c[nH]c12 | 8.89 |
| O=C1c2ccc(F)cc2C(=O)N1CCCCCN1CC=C(c2c[nH]c3ccccc23)CC1 | 8.70 |
| O=C1c2ccccc2C(=O)N1CCCCN1CC=C(c2c[nH]c3ccc(F)cc23)CC1 | 9.22 |

Now for a further molecule.
q: What does the record list as pKi for Cc1ccc2c(c1)C(=O)N(CCCCCN1CC=C(c3c[nH]c4ccc(F)cc34)CC1)C2=O ?
a: 8.52

---

Target: Sodium-dependent serotonin transporter (Rattus norvegicus, UniProt P31652)
Sequence (P31652 whole entry): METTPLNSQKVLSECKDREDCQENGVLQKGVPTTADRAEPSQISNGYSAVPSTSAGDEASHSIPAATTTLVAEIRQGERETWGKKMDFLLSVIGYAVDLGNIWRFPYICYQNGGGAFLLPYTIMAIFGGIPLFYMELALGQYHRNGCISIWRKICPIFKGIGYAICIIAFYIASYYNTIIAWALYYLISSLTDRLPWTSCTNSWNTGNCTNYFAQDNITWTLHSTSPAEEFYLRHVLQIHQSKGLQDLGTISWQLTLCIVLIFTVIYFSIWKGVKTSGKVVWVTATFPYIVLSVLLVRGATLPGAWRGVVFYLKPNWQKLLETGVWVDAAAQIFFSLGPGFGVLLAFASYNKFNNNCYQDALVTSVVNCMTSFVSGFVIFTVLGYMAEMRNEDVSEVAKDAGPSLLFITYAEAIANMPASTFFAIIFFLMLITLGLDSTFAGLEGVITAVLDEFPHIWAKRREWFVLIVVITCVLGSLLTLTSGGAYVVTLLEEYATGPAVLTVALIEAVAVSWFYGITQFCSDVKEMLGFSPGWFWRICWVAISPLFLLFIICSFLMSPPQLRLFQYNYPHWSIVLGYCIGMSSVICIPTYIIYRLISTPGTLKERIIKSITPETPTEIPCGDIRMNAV
Assay: In vitro binding affinity for serotonin reuptake sites in rat frontal cortex membranes by [3H]paroxetine displacement.
Hi there, I'd appreciate the recorded log10(Ki) for every entry that follows.
Use the decimal logarithm of Ki (nM).

| LINE_NOTATION | log10(Ki) |
| --- | --- |
| O=C1c2ccccc2C(=O)N1CCCCCN1CC=C(c2c[nH]c3ccc(F)cc23)CC1 | 0.40 |
| C1=C(c2c[nH]c3ccccc23)CCNC1 | 0.78 |
| O=C1c2ccc(F)cc2C(=O)N1CCCCCN1CC=C(c2c[nH]c3ccc(F)cc23)CC1 | 0.11 |
| O=C1c2ccccc2C(=O)N1CCCCCN1CC=C(c2c[nH]c3ccccc23)CC1 | 0.40 |

Dear reader, for each entry below, please note its log10(Ki).
1. Cc1ccc2c(c1)C(=O)N(CCCCCN1CC=C(c3c[nH]c4ccccc34)CC1)C2=O
2. O=C1c2cccc(F)c2C(=O)N1CCCCCN1CC=C(c2c[nH]c3ccc(F)cc23)CC1
3. Cc1cccc2c1C(=O)N(CCCCCN1CC=C(c3c[nH]c4ccccc34)CC1)C2=O
4. O=C(CCCN1CCC(CCc2c[nH]c3ccccc23)CC1)c1ccc(F)cc1
5. Cc1cccc2c1C(=O)N(CCCCCN1CC=C(c3c[nH]c4ccc(F)cc34)CC1)C2=O
6. O=C1c2ccccc2C(=O)N1CCCCCCCN1CC=C(c2c[nH]c3ccc(F)cc23)CC1
7. O=C1c2ccccc2C(=O)N1CCCN1CC=C(c2c[nH]c3ccc(F)cc23)CC1

a:
1. 0.30
2. -0.40
3. 0.00
4. 0.30
5. 0.00
6. -0.10
7. 1.40

q: So what does the record say about log10(Ki) for O=C1c2cccc(F)c2C(=O)N1CCCCCN1CC=C(c2c[nH]c3ccccc23)CC1 ?
a: -0.10
